Counter-ions that a name gives are not always drawn.
PARAMETER_MEASURED: melting point (°C)
// units = °C; emit number, no label

// known answers, use as guide
- CN(C)C(=O)N1CCN(C(=O)N2CCC(c3cccnc3)C2)c2ccccc21.Cl (stereo not drawn): 181
- CCCCN1CCN(C(=O)N2CCC(c3cccnc3)C2)c2ccccc21.Cl (stereo not drawn): 191

Need melting point, item CC(=O)N1CCN(C(=O)N2CCC(c3cccnc3)C2)c2ccccc21.Cl (stereo not drawn)
201

Need melting point, item O=C(NN1CCCCC1)c1ccc(N2CCN(C(=O)N3CCC(c4cn[nH]c4)C3)c3ccccc32)cc1 (stereo not drawn)
251

Need melting point, item NC(=O)c1ccc(N2CCN(C(=O)N3CCC(c4cn[nH]c4)C3)c3ccccc32)cn1 (stereo not drawn)
90

Need melting point, item Cl.O=C(N1CCC(c2ccncc2)CC1)N1CCCc2ccccc21
198

Need melting point, item CCCN1CCN(C(=O)N2CCC(c3cccnc3)C2)c2ccccc21 (stereo not drawn) (as salt: HCl)
121

Need melting point, item COc1cc(N2CCN(C(=O)N3CCC(c4cn[nH]c4)C3)c3ccccc32)ccc1C(=O)NC1CC1 (stereo not drawn)
100

----------
TARGET: recombinant 11β-HSD1 protein (Homo sapiens)
Sequence (P28845 whole entry, species assumed): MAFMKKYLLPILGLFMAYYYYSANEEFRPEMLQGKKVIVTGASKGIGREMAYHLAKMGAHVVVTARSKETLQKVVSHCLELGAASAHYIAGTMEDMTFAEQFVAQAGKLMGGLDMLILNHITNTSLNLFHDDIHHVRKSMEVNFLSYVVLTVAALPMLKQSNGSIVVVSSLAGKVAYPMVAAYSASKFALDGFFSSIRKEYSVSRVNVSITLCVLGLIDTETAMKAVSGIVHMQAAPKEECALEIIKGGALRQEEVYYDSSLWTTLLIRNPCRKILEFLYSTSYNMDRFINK
ASSAY_DETAILS: 11β-HSD1 SPA (Scintillation Proximity Assay) enzyme inhibition test, 384-well format
CONDITION_NOTES: 3H-cortisone and NADPH; cortisol formed measured by SPA; read-out: IC50 (concentration which inhibits 50% of the activity of 11β-HSD1)
Note to self: use YES only for IC50 readings below 60 nM; a reading exactly at 60 nM still gets NO.

Known results for molecules:
* COc1cc(N2CCN(C(=O)N3CCC(c4cn[nH]c4)C3)c3ccccc32)ccc1C(=O)NC1CC1 (stereo not drawn) | YES
* Cl.O=C(N1CCC(c2ccncc2)CC1)N1CCCc2ccccc21 [compound 4, Hydrochloride] | NO
* NC(=O)c1ccc(N2CCN(C(=O)N3CCC(c4cn[nH]c4)C3)c3ccccc32)cn1 (stereo not drawn) | NO

Lab note: confirm whether the reported IC50 for this molecule is below 60 nM, equality not counting. molecule: CCCN1CCN(C(=O)N2CCC(c3cccnc3)C2)c2ccccc21 (stereo not drawn)
NO

Lab note: confirm whether the reported IC50 for this molecule is below 60 nM, equality not counting. molecule: O=C(N1CCC2(CCCc3ccccc32)CC1)N1CCCc2ccccc21
YES

Lab note: confirm whether the reported IC50 for this molecule is below 60 nM, equality not counting. molecule: N#Cc1cccc(CN2CCN(C(=O)N3CCC(c4cn[nH]c4)C3)c3ccccc32)c1 (stereo not drawn)
YES

----------
PARAMETER_MEASURED: melting point (°C)
// units = °C; emit number, no label

* CS(=O)(=O)c1ccc(CN2CCN(C(=O)N3CCC(c4cn[nH]c4)C3)c3ccccc32)cc1 (stereo not shown) | 239

Need melting point, item N#Cc1cccc(CN2CCN(C(=O)N3CCC(c4cn[nH]c4)C3)c3ccccc32)c1 (stereo not shown)
174

Need melting point, item Cl.O=C(N1CCC(c2cccnc2)C1)N1CCOc2ccc(CO)cc21 (stereo not shown)
273

----------
Reported melting point values for the following compounds.

// known answers, use as guide
• Cl.O=C(N1CCC(c2cccnc2)C1)N1CCOc2ccccc21 (stereo not shown) = 60 to 90 °C
• O=C(N1CCC(c2nc(-c3c(Cl)cccc3Cl)no2)CC1)N1CCCc2ccccc21 [compound 25] = 63 to 68 °C
• O=C(N1CCC2(C=Cc3ccccc32)CC1)N1CCCc2ccccc21 [compound 15] = 130 to 133 °C

As a next step, examine the compound that follows.
Need melting point, item N#CC1(c2ccccc2)CCN(C(=O)N2CCCc3ccccc32)CC1
53 to 59 °C
